- PROCEDURE_TEXT: Dye hue from spectrophotometric curves: λ-max, half band width, curve shape factor
- DETAILS: Table I; coupler solvent CS-3; developer D-2
EXPERIMENTAL_ENDPOINT: HBW (half band width) (nanometers)
# output: bare number, implied unit nanometers

COMPOUND	EXPERIMENTAL_ENDPOINT	MEASURED
CCCCC(Oc1ccc(S(=O)(=O)c2ccc(O)cc2)cc1)C(=O)Nc1cccc(NC(=O)C(Oc2ccc(S(=O)(=O)c3ccc(O)cc3)cc2)C(=O)C(C)(C)C)c1 (centres unmarked)	HBW (half band width)	93
CCCCC(Oc1ccc(S(=O)(=O)c2ccc(OCc3ccccc3)cc2)cc1)C(=O)Nc1cccc(NC(=O)C(Oc2ccc(S(=O)(=O)c3ccc(O)cc3)cc2)C(=O)C(C)(C)C)c1 (centres unmarked) [CC-8, reference compound]	HBW (half band width)	90
CCCCC(Oc1ccc(S(=O)(=O)c2ccc(O)cc2)cc1)C(=O)Nc1ccc(Cl)c(NC(=O)C(Oc2ccc(S(=O)(=O)c3ccc(O)cc3)cc2)C(=O)C(C)(C)C)c1 (centres unmarked)	HBW (half band width)	90

Recall and state the measured HBW (half band width) for CCCCCCCCCCCCCCCCS(=O)(=O)Nc1ccc(Cl)c(NC(=O)C(Oc2ccc(S(=O)(=O)c3ccc(OCc4ccccc4)cc3)cc2)C(=O)C(C)(C)C)c1 (centres unmarked) [CC-5, reference compound] . 88

Recall and state the measured HBW (half band width) for CCCCC(Oc1ccc(S(=O)(=O)c2ccc(OCc3ccccc3)cc2)cc1)C(=O)Nc1ccc(Cl)c(NC(=O)C(Oc2ccc(S(=O)(=O)c3ccc(O)cc3)cc2)C(=O)C(C)(C)C)c1 (centres unmarked) [CC-7, reference compound] . 85
